Hello, the source for this data is paper PMC5540273, in case you need it.

tested on: MARK3; conditions: concentration: 1 μM, replicates: in singlicate; n = 1;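 also: KINOMEscan kinase panel screen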
EXPERIMENTAL_ENDPOINT: %Inh (%)

CN(C)S(=O)(=O)c1cc(-c2ccc3nccc(-c4cccc(S(N)(=O)=O)c4)c3c2)cnc1N [GSK1669921] = 0
Cl.Cl.NCC(C(=O)Nc1cc(Br)c(-c2ccnc3[nH]ccc23)s1)c1ccccc1 (centres unmarked) [GSK1269851] = 0
CN(c1ccc(NC(=O)Nc2cc(C(F)(F)F)ccc2F)cc1)c1ccnc(Nc2ccc(S(N)(=O)=O)cc2)n1 [GW809893] = 2
Cn1cc(-c2ccc3c(c2)CCN3C(=O)Cc2cccc(Cl)c2)c2c(N)ncnc21 [GSK2606590] = 3
CNC(=O)c1ccccc1Nc1nc(Nc2ccc(N3CCOCC3)cc2)ncc1Cl.Cl [GSK1576028] = 95.5
Cc1cccc(NC(=O)Nc2ccc(Oc3ncnc4ccn(C)c34)cc2)c1 = 6
CC(=O)Nc1nc2cnc(Nc3cc(NC(=O)c4cccc(C5(C#N)CC5)c4Cl)ccc3C)nc2s1 = 0
Clc1ccc(-c2nn3ncccc3c2-c2ccnc(Nc3ccc4c(c3)OCCO4)n2)cc1 [GW829116] = 20
Nc1ncnc2c1nc(-c1ccccc1)n2-c1ccccc1 [SKF-97293] = 39
Cc1ccc(S(=O)(=O)Nc2ccc(Nc3nccc(Nc4cccc5[nH]ncc45)n3)cc2)cc1 [GSK581271] = 0
COc1ccc(Nc2nccc(N3CCC(NC(=O)Nc4cccc(OC)c4)C3)n2)cc1 (centres unmarked) [GSK1379742] = 0
c1ccc(-c2cnc3nccnn23)cc1 [AH20685] = 0
O=C(NC1CCN(c2ccnc(Nc3ccc(F)cc3)n2)C1)c1cc2ccccc2s1 (centres unmarked) [GSK1379716] = 0
c1ccc(-c2n[nH]cc2Nc2ccnc3ccccc23)nc1 [GW694077] = 0
COc1cc(Nc2nccc(-c3c(-c4cccc(NC(=O)c5c(F)cccc5F)c4)nn4ccccc34)n2)cc(OC)c1OC [GSK323521] = 51
COc1ccc(Nc2nccc(NCCNC(=O)c3cc4ccccc4s3)n2)cc1 [GSK1379896] = 4
CN1CCN(CCCNc2nccc(-c3c(-c4ccc(F)cc4)nn4cc(C(F)(F)F)ccc34)n2)CC1 [GW621581] = 16

----------
Reported %Inh is given for each of the following compounds.
test system: WNK3; conditions: concentration: 1 μM, replicates: in singlicate; n = 1
EXPERIMENTAL_ENDPOINT: %Inh (%)

Cl.NC(=O)c1cccc(Nc2nccc(Nc3ccc(Oc4c(Cl)cccc4Cl)c(Cl)c3)n2)c1 = 12
CC(=O)N1CCN(c2ccc(Nc3nccc(-c4sc(C(C)C)nc4-c4cccc(NS(=O)(=O)c5cccc(Cl)c5)c4)n3)cn2)CC1 = 0
O=C(Nc1cccc(Oc2ccc3nc(NC(=O)C4CC4)cn3n2)c1)c1ccccc1C(F)(F)F = 0
Cc1occc1-c1ncc(OC[C@@H](N)Cc2c[nH]c3ccccc23)cc1-c1ccc2[nH]nc(C)c2c1.O=C(O)C(F)(F)F = 0

----------
Reported %Inh is given for each of the following compounds.
tested on: GSK3B; conditions: 1 µM; n = 1
EXPERIMENTAL_ENDPOINT: %Inh (%)

O=C(Nc1n[nH]c2nc(-c3ccc(O)cc3)ccc12)C1CC1 = 95.6
COc1cccc(-c2ccc3c(NC(=O)C4CC4)n[nH]c3n2)c1 = 43
COc1cccc(C2=C(Nc3ccc(Cl)c(C(=O)O)c3)C(=O)NC2=O)c1 = 34
Nc1n[nH]c2cnc(-c3ccccc3)cc12 = 25

----------
system: WNK1; settings: concentration: 1 μM, replicates: in singlicate; n = 1
Reported %Inh is given for each of the following compounds.
EXPERIMENTAL_ENDPOINT: %Inh (%)

COc1cccc(NC(=O)NC2CCN(c3ccnc(Nc4cc(OC)c(OC)c(OC)c4)n3)C2)c1 (centres unmarked) [GSK1379763] = 8
Cc1cccc(NC(=O)Nc2ccc(Oc3ncnc4ccn(C)c34)cc2)c1 = 0
CN(C)Cc1ccc(-c2ccc3c(Nc4ccc(Oc5ccccn5)cc4)ccnc3c2)o1 [GW567148] = 17
COc1cc(Nc2nccc(-c3c(-c4cccc(NC(=O)c5c(F)cccc5F)c4)nn4ncccc34)n2)cc(OC)c1OC [GSK327238] = 1
CCS(=O)(=O)c1ccc(OC)c(Nc2nccc(-c3c(-c4cccc(NC(=O)c5c(F)cccc5F)c4)nn4ncccc34)n2)c1 [GSK326180] = 17
Clc1ccc(-c2nn3ncccc3c2-c2ccnc(Nc3ccc4c(c3)OCCO4)n2)cc1 [GW829116] = 0
COc1cc2c(cc1OCCN1CCNCC1)ncc1c3ccc(C#N)cc3[nH]c21 = 12
CN1CCN(Cc2cccc(-c3ccc4c(Nc5ccc(Oc6ccccc6)cc5)ccnc4c3)c2)CC1 [GW578342] = 0

----------
tested on: ASK1; construct: gene MAP3K5; details: concentration: 1 μM, replicates: in singlicate; n = 1
Reported %Inh is given for each of the following compounds.
EXPERIMENTAL_ENDPOINT: %Inh (%)

CN1CCN(CCCNc2nccc(-c3c(-c4ccc(F)cc4)nn4cc(C(F)(F)F)ccc34)n2)CC1 = 6
Cc1occc1-c1ncc(OC[C@@H](N)Cc2c[nH]c3ccccc23)cc1-c1ccc2[nH]nc(C)c2c1.O=C(O)C(F)(F)F = 0
Cc1cccc(Nc2nc(N[C@H]3CCNC3)ncc2C(N)=O)c1.Cl = 0
COc1ccc(Nc2nccc(N3CCC(NC(=O)Nc4cccc(OC)c4)C3)n2)cc1 (stereo not shown) = 5
CCS(=O)(=O)c1ccc(OC)c(Nc2nccc(-c3c(-c4cccc(NC(=O)c5c(F)cccc5F)c4)nn4ncccc34)n2)c1 = 20
CC(=O)N1CCN(c2ccc(Nc3nccc(-c4sc(C(C)C)nc4-c4cccc(NS(=O)(=O)c5cccc(Cl)c5)c4)n3)cn2)CC1 = 0
O=C(Nc1cccc(-c2nn3ccccc3c2-c2ccnc(Nc3cccc(C(F)(F)F)c3)n2)c1)c1c(F)cccc1F = 2
COC(=O)Nc1nc2cc(Oc3ccc(NC(=O)Nc4cc(C(F)(F)F)ccc4F)cn3)ccc2[nH]1.Cl.Cl = 10
CSc1cccc2c(-c3ccncn3)c(-c3ccc(F)cc3)nn12 = 0
Cl.c1ccc(-c2ccc3c(Nc4ccc5[nH]ccc5c4)ccnc3c2)nc1 = 0
COc1cc2c(cc1OCCN1CCNCC1)ncc1c3ccc(C#N)cc3[nH]c21 = 0
COc1cc(Nc2nccc(N3CCC(NC(=O)c4cc5ccccc5s4)C3)n2)cc(OC)c1OC (stereo not shown) = 20
c1ccc(-c2cnc3nccnn23)cc1 = 0
FC(F)(F)c1ccc(/C=C/c2cncnc2Nc2ccc3[nH]c(Cc4ccccc4)nc3c2)cc1 = 0
Cc1ccc(F)c(C(=O)Nc2cccc(-c3nn4ccccc4c3-c3ccnc(Nc4cccc(F)c4)n3)c2)c1F = 2
O=C(NC1CCN(c2ccnc(Nc3ccc(F)cc3)n2)C1)c1cc2ccccc2s1 (stereo not shown) = 14

----------
Reported %Inh is given for each of the following compounds.
test system: ERK1; construct: gene MAPK3; settings: concentration: 1 μM, replicates: in singlicate; n = 1
EXPERIMENTAL_ENDPOINT: %Inh (%)

COc1ccc(-c2coc3ccc(-c4nnc(SCc5ccc(OC)c(C(F)(F)F)c5)o4)cc23)cc1 = 8
CC(=O)Nc1nc2cnc(Nc3cc(NC(=O)c4cccc(C5(C#N)CC5)c4Cl)ccc3C)nc2s1 = 0
Cl.Cl.NCC(NC(=O)c1cc(-c2ccccc2)c(-c2ccnc3[nH]ccc23)s1)c1ccccc1 (stereo not shown) [GSK1321561] = 6
O=c1[nH]cc(-c2ccc(N3CCOCC3)cc2)c2sc(-c3cn[nH]c3)cc12 [GSK2276055] = 0

----------
test system: STK35; conditions: concentration: 1 μM, replicates: in singlicate; n = 1
Reported %Inh is given for each of the following compounds.
EXPERIMENTAL_ENDPOINT: %Inh (%)

COc1ccc(Nc2nccc(NCCNC(=O)c3cc4ccccc4s3)n2)cc1 [GSK1379896] = 0
O=C(O)C(F)(F)F.O=C(O)C(F)(F)F.O=c1[nH]ccc2nc(N[C@@H]3CCCNC3)nc(Nc3ccc(S(=O)(=O)N4CCOCC4)cc3)c12 [GSK2177277] = 98
O=C(NC1CCN(c2ccnc(Nc3ccc(F)cc3)n2)C1)c1cc2ccccc2s1 (centres unmarked) [GSK1379716] = 6
CCc1ccc(-c2ccc3c(c2)-c2c(cnn2C)S(=O)(=O)N3C)cc1 = 2
COc1cccc(-c2ccc3c(NC(=O)C4CC4)n[nH]c3n2)c1 [SB-710903] = 0
Oc1cc(Nc2ccnc3cc(I)ccc23)ccc1F [GW552771] = 5
Nc1ncc(-c2cccnc2)c2scc(-c3ccc4c(c3)CCN4C(=O)Cc3ccccc3)c12 [GSK683281] = 0
O=c1[nH]cc(-c2ccc(N3CCOCC3)cc2)c2sc(-c3cn[nH]c3)cc12 [GSK2276055] = 0
Cl.c1ccc(-c2ccc3c(Nc4ccc5[nH]ncc5c4)ccnc3c2)nc1 [GW440137] = 0
O=C(Nc1ccccc1F)NC1CCN(c2ccnc(Nc3ccc(F)cc3)n2)CC1 [GSK1379800] = 0
CC(=O)Nc1nc2cnc(Nc3cc(NC(=O)c4cccc(C5(C#N)CC5)c4Cl)ccc3C)nc2s1 = 0
Nc1ncnc2c1nc(-c1ccccc1)n2-c1ccccc1 [SKF-97293] = 0
Cl.Cl.NCC(C(=O)Nc1cc(Br)c(-c2ccnc3[nH]ccc23)s1)c1ccccc1 (centres unmarked) [GSK1269851] = 0
NCCCC(NC(=O)c1cc(Br)c(-c2ccnc3[nH]ccc23)s1)c1ccccc1.O=C(O)C(F)(F)F.O=C(O)C(F)(F)F (centres unmarked) [GSK1287544] = 0
COc1cc(Nc2ncc3c(C)nc(-c4cc5ccccc5[nH]4)n3n2)cc(OC)c1OC [GW869516] = 0
c1ccc(-c2n[nH]cc2Nc2ccnc3ccccc23)nc1 [GW694077] = 0
COc1cc(Nc2nccc(-c3c(-c4cccc(NC(=O)c5c(F)cccc5F)c4)nn4ncccc34)n2)cc(OC)c1OC [GSK327238] = 96.9
